Documented viability at 24 h, 25000 ng/ml NPs (pure drug equimolar) across a set of molecules
experimental protocol: MTT cytotoxicity test, HeLa
Format: cell-based
measurement context: human, HeLa cells, 2.50E+04 ng/ml NPs (pure drug equimolar)
Please reply with the bare figure in % and do not write the unit itself.

- molecule: "COc1cccc2c1C(=O)c1c(O)c3c(c(O)c1C2=O)C[C@@](O)(C(=O)CO)C[C@@H]3O[C@H]1C[C@H](N)[C@@H](O)[C@H](C)O1 [Epi, epirubicin]"
  u: "%"
  reported measurement: 72.8

GET /values?readout=viability at 24 h, 25000 ng/ml NPs (pure drug equimolar)&item= COc1cccc2c1C(=O)c1c(O)c3c(c(O)c1C2=O)C[C@@](O)(C(C)=O)C[C@@H]3O[C@H]1C[C@H](N)[C@H](O)[C@H](C)O1 [Dau, daunorubicin] 2.11
